Listing of IC50 toward Mast/stem cell growth factor receptor Kit (Homo sapiens), each taken from a published source.

Examples from the recorded data:
CCOc1cccc(Cc2c[nH]c3ncccc23)c1 : ≤ 10 µM
O=C(c1ccccc1F)c1c[nH]c2ncc(-c3cccnc3)cc12 : ≤ 10 µM
CCOc1ccc(Nc2cnc3[nH]ccc3c2)cc1 : ≤ 10 µM
CCCc1ccc(S(=O)(=O)Nc2ccc(F)c(C(=O)c3c[nH]c4ncc(-c5nccn5C)cc34)c2F)cc1 : ≤ 10 µM
CS(=O)(=O)c1ccc(-c2cnc3[nH]ccc3c2)cc1 : ≤ 10 µM

Problem: Indicate its recorded IC50; the compound in question is OC(c1ccccc1F)c1c[nH]c2ncc(Br)cc12 (stereo not shown)
Solution: ≤ 10 µM

Problem: Indicate its recorded IC50; the compound in question is "COc1ncc(F)cc1CNc1ncc(Cc2c[nH]c3ncnc(OC)c23)cn1"
Solution: ≤ 10 µM

Problem: Indicate its recorded IC50; the compound in question is "O=C(c1cccc(O)c1)c1c[nH]c2ncc(-c3cccs3)cc12"
Solution: ≤ 10 µM

Problem: Indicate its recorded IC50; the compound in question is "COc1ccc(CNc2ccc(C(=O)c3c[nH]c4ncncc34)cn2)cn1"
Solution: ≤ 10 µM

Problem: Indicate its recorded IC50; the compound in question is "Fc1nc(NC2CCC(F)(F)CC2)ccc1Cc1c[nH]c2ncnc(NC3CC3)c12"
Solution: < 1 µM

Problem: Indicate its recorded IC50; the compound in question is "Cc1nc(NC(=O)N2CCCC(C)(C)C2=O)ccc1Oc1ccnc(-c2cnn(C)c2)c1"
Solution: 0.00848 µM

Problem: Indicate its recorded IC50; the compound in question is "COc1ccc(Nc2ncc(Cc3c[nH]c4ncc(C)cc34)cn2)cc1F"
Solution: < 0.1 µM

Problem: Indicate its recorded IC50; the compound in question is "COCCOc1ccc(F)c(Cc2c[nH]c3ncc(Br)cc23)c1F"
Solution: ≤ 10 µM

Problem: Indicate its recorded IC50; the compound in question is "CC(C)Oc1ncccc1CNc1ccc(Cc2c[nH]c3ncncc23)c(F)n1"
Solution: ≤ 10 µM

Problem: Indicate its recorded IC50; the compound in question is "CCCS(=O)(=O)Nc1ccc(F)c(C(=O)c2c[nH]c3ncc(OC4CCOCC4)cc23)c1F"
Solution: ≤ 10 µM

Problem: Indicate its recorded IC50; the compound in question is "CCCCS(=O)(=O)Nc1ccc(F)c(C(=O)c2c[nH]c3ncc(Br)cc23)c1F"
Solution: ≤ 10 µM

Problem: Indicate its recorded IC50; the compound in question is "CN(C)S(=O)(=O)Nc1cccc(C(=O)c2c[nH]c3ncc(C#N)cc23)c1F"
Solution: ≤ 10 µM

Problem: Indicate its recorded IC50; the compound in question is "CC(C)=CNc1ncnc2[nH]cc(C(=O)c3ccc(NC4CCC(F)(F)CC4)nc3Cl)c12"
Solution: > 1 µM

Problem: Indicate its recorded IC50; the compound in question is "CC(C)(C)OC(=O)N1CCN(C(=O)c2nc(-c3cccc(CNC(=O)Nc4ccc(Cl)c(C(F)(F)F)c4)c3)cnc2N)CC1"
Solution: 0.5 to 5 µM

Problem: Indicate its recorded IC50; the compound in question is "O=C(c1c(Cl)ccc(OCC(F)(F)F)c1F)c1c[nH]c2ncc(-c3cccnc3)cc12"
Solution: ≤ 10 µM

Problem: Indicate its recorded IC50; the compound in question is "O=C(c1cc(O)ccc1F)c1c[nH]c2ncc(-c3ccsc3)cc12"
Solution: ≤ 10 µM
